assay.endpoint: logP

For orientation, consider the following solved cases.
NC1=NCC(CN2CCN(c3cccc(Cl)c3)CC2)O1 (stereo not given) :: 1.83
NC1=NCC(CN2CCN(c3ncccn3)CC2)O1 (stereo not given) :: 0.21
Cc1cccc(N2CCN(CC3CN=C(N)O3)CC2)c1C (stereo not given) :: 2.19
COc1cccc(N2CCN(CC3CN=C(N)O3)CC2)c1 (stereo not given) :: 0.87
NC1=NCC(CN2CCN(c3ccccc3)CC2)O1 (stereo not given) :: 0.85
NC1=NCC(CN2CCN(c3ccc(Cl)c(Cl)c3)CC2)O1 (stereo not given) :: 2.4
CCOc1ccccc1N1CCN(CC2CN=C(N)O2)CC1 (stereo not given) :: 1.21
Cc1ccc(N2CCN(CC3CN=C(N)O3)CC2)cc1 (stereo not given) :: 1.23
NC1=NCC(CN2CCN(c3cccc(C(F)(F)F)c3)CC2)O1 (stereo not given) :: 2.21
NC1=NCC(CN2CCN(c3ccccc3Cl)CC2)O1 (stereo not given) :: 1.87

I: NC1=NCC(CN2CCN(c3ccccn3)CC2)O1 (stereo not given)
II: NC1=NCC(CN2CCN(c3ccc(F)cc3)CC2)O1 (stereo not given)
III: NC1=NCC(CN2CCN(c3ccc(Cl)cc3)CC2)O1 (stereo not given)
## Task Sequence the entries by logP, beginning with the highest number. Give the labels in the order specified.
## Result III, II, I
